Source of measurements: patent US12377069B2

Tested on: Cyp1A1
Assay Notes: Cyp1A1 expression and enzyme activity in vitro (P450-Glo, EROD)
Type: cell-based, human
Experimental Conditions: HT29, 24 h; P450-Glo and EROD
Readout Label: Cyp1A1 enzyme activity in colon epithelial cells

{"columns": ["Compound", "Result"],
 "data": [
  ["Oc1ccc2c(c1)COc1cc(O)ccc1-2 [UAS03, 6H-benzo[c]chromene-3,8-diol]", "induced Cyp1A1 activity"],
  ["O=c1oc2cc(O)ccc2c2ccc(O)cc12 [UroA, 3,8-dihydroxy-6H-dibenzo[b,d]pyran-6-one]", "induced Cyp1A1 activity"]
]}
